# ASSAY_SYSTEM: hemagglutinin (HA) of influenza virus H7N7 A/PR8 H7N7-NY (influenza A virus)
# ASSAY_NAME: cell-based or functional assay
MEASURED_ENDPOINT: average neutralization titer (nM)
Your answer should be a plain number; it is taken to be in nM.

Prompt: # lookup: average neutralization titer of MD2320 (bispecific antibody) EVQLVESGGGLVQAGDSLRISCAASGRTLSIYSMGWFRQAPGKEREFVATIGWNSGRTFYPDSLKGRFTISRDNARNTLYLQMNNLRPEDTAVYYCAAAKGPLRLSSQADYWGQGTQVTVSSGGGGSGGGGSEVQLVESGGGLVQPGGSLRLSCAVSISIFDIYAMDWYRQAPGKQRDLVATSFRDGSTNYADSVKGRFTISRDNAKNTLYLQMNSLKPEDTAVYLCHVSLYRDPLGVAGGMGVYWGKGALVTVSSGGGGSGGGGSEVQLVESGGGLVQPGGSLRLSCAATGFTLENKAIGWFRQTPGSEREGVLCISKSGSWTYYTDSMRGRFTISRDNAENTVYLQMDSLKPEDTAVYYCATTTAGGGLCWDGTTFSRLASSWGQGTQVTVSS
Response: 15.3
